Examples of sequences with documented self-splicing fitness (ln) follow.
# Experiment: self-splicing fitness, log relative to wild type (ln ratio); higher = more splicing; Tetrahymena group I intron in knt gene, E. coli kanamycin selection, DiMSum; sequences stand for … in CUCUCU…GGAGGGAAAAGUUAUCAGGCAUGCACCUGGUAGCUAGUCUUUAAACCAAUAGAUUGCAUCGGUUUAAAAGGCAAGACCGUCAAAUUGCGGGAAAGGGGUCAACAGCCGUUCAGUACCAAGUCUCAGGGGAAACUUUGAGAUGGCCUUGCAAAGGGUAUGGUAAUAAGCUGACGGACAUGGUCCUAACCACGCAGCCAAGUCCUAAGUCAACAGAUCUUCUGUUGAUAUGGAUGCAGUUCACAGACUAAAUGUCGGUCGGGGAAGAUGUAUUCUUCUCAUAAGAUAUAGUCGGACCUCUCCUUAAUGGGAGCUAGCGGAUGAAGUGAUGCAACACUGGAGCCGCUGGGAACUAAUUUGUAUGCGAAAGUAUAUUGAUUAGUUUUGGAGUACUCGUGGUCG;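 further: selection with 25 µg/mL kanamycin versus none on LB agar overnight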
# Condition Summary: 30 °C

# Sequence Entry, self-splicing fitness (ln)
data = [
    ("UUACAGCAAUAUUACGAGCA", -1.65),
    ("UUUAAGCAAUAUUACGACUC", -0.391),
    ("CGAAAGCAAUAUUACGCGGA", -3.29),
    ("UCUCAGCAAUAUUACGAUGA", -1.01),
    ("UCAUAGCAAUAUUACGGGGU", -4.08),
    ("CCUUAGCAAUAUUACGGUUG", -2.38),
    ("ACGAAGCAAUAUUACGUCAG", -3.43),
    ("CGCAAGCAAUAUUACGAGGG", -3.85),
    ("CAUGAGCAAUAUUACGAGUA", -2.36),
    ("AUAAAGCAAUAUUACGUGCU", -1.29),
    ("GCUCAGCAAUAUUACGGGCG", -1.61),
    ("CUGUAGCAAUAUUACGGGCU", -4.31),
    ("CUGCAGCAAUAUUACGACGA", -1.85),
    ("CGGUAGCAAUAUUACGUUGG", -1.26),
    ("AUUUAGCAAUAUUACGGUGG", -3.55),
    ("UUCCAGCAAUAUUACGGAUC", -3.83),
]
